measurement target: HPK full length, T165E S171E (Homo sapiens (Human), UniProt Q92918, S171E/T165E)
Sequence (Q92918 whole entry T165E/S171E, looked up): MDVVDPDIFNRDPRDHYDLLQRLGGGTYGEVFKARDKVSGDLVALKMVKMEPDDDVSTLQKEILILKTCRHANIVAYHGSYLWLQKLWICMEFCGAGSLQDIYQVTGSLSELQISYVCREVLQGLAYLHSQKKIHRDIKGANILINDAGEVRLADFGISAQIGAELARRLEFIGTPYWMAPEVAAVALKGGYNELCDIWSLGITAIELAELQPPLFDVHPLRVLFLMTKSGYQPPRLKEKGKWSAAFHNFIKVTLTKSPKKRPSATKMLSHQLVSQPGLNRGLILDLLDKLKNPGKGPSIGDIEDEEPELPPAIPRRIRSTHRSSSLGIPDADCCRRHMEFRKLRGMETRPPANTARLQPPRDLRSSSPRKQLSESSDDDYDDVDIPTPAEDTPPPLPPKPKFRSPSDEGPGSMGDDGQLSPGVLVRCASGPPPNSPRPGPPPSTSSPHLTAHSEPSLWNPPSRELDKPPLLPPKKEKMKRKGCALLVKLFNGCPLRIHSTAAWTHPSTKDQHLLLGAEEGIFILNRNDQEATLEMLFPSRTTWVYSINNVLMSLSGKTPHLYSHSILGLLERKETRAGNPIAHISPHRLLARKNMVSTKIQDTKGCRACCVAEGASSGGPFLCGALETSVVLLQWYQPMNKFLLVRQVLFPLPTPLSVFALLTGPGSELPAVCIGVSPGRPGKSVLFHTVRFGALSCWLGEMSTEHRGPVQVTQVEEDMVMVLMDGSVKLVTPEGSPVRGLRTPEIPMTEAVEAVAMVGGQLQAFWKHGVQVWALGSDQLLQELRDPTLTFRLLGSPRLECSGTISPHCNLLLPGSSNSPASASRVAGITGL
assay details: HPK1-FL HTRF enzymatic assay ("HTRF")
Format: biochemical
condition notes: ATP 1 mM, read-out: HPK1 Ki

molecule: Cc1c(-c2cc3cc(NC(=O)O[C@@H]4CCC5(CCN(C6COC6)CC5)C4)ncc3c(N)c2F)cnc2c1NCCO2 (single isomer, unassigned) [Compound 511a]
Ki: < 0.013 nM
//
molecule: Cc1c(-c2cc3cc(NC(=O)O[C@H]4C[C@@H](S(C)(=O)=O)C4)ncc3c(N)c2F)cnc2c1NCCO2 [Compound 572a]
Ki: < 0.013 nM
//
molecule: Cc1c(-c2cc3cc(NC(=O)OC4CC5(CCN(C)CC5)C4)ncc3c(N)c2F)cnc2c1NCCC2
Ki: < 0.013 nM
//
molecule: Cc1c(-c2cc3cc(NC(=O)N[C@H]4C[C@H](F)C4)ncc3c(N)c2F)cnc2c1NCCC2 [Compound 732a]
Ki: < 0.013 nM
//
molecule: Cc1c(-c2cc3cc(NC(=O)N[C@H]4C[C@@H](F)C4)ncc3c(N)c2F)cnc2c1NCCO2 [Compound 748a]
Ki: < 0.013 nM
//
molecule: CC(=O)N1CC2(CC(NC(=O)Nc3cc4cc(-c5cnc6c(c5C)NCCO6)c(F)c(N)c4cn3)C2)C1
Ki: < 0.013 nM
//
molecule: Cc1c(-c2cc3cc(NC(=O)OC4CN(CC(F)(F)F)C4)ncc3c(N)c2F)cnc2c1NCCO2
Ki: < 0.013 nM
//
molecule: Cc1c(-c2cc3cc(NC(=O)O[C@H]4[C@@H]5CN(C(C)C)C[C@@H]54)ncc3c(N)c2F)cnc2c1NCCO2 [Compound 499a]
Ki: < 0.013 nM
//
molecule: Cc1c(-c2cc3cc(NC(=O)OC4CC(O)(C5CC5)C4)ncc3c(N)c2F)cnc2c1NCCO2 (centres unmarked) [Compound 551a]
Ki: < 0.013 nM
//
molecule: Cc1c(-c2cc3cc(NC(=O)NC4CC4)ncc3c(N)c2F)cnc2c1NCCO2
Ki: < 0.013 nM
//
molecule: Cc1c(-c2cc3cc(NC(=O)O[C@@H]4C[C@@](C)(O)[C@H]4C)ncc3c(N)c2F)cnc2c1NCCO2 [Compound 526d]
Ki: 0.018 nM
//
molecule: Cc1c(-c2cc3cc(NC(=O)O[C@@H]4CCN([C@H]5CCOC5)C[C@@H]4F)ncc3c(N)c2F)cnc2c1NCCO2 [Compound 569a]
Ki: 0.277 nM
//
molecule: Cc1c(-c2cc3cc(NC(=O)N[C@@H]4CCCOC4)ncc3c(N)c2F)cnc2c1NCCO2 (single isomer, unassigned) [Compound 711b]
Ki: < 0.013 nM
//
molecule: Cc1c(-c2cc3cc(NC(=O)OC4CN(C)C4)ncc3c(N)c2F)cnc2c1NCCO2
Ki: 0.11 nM
//
molecule: Cc1c(-c2cc3cc(NC(=O)OC4C5COCC4CN(C)C5)ncc3c(N)c2F)cnc2c1NCCO2 (single isomer, unassigned) [Compound 439b]
Ki: 0.48 nM
//
molecule: Cc1c(-c2cc3cc(NC(=O)O[C@@H]4COC[C@@H]4C)ncc3c(N)c2F)cnc2c1NCCO2 (single isomer, unassigned) [Compound 441d]
Ki: 0.32 nM
//
molecule: Cc1c(-c2cc3cc(NC(=O)OC4CN(C(=O)[C@H]5C[C@@H]5F)C4)ncc3c(N)c2F)cnc2c1NCCO2 (single isomer, unassigned) [Compound 545a]
Ki: 0.021 nM
